Biological target: human Kv7.2 (Homo sapiens)
Sequence (O43526 whole entry): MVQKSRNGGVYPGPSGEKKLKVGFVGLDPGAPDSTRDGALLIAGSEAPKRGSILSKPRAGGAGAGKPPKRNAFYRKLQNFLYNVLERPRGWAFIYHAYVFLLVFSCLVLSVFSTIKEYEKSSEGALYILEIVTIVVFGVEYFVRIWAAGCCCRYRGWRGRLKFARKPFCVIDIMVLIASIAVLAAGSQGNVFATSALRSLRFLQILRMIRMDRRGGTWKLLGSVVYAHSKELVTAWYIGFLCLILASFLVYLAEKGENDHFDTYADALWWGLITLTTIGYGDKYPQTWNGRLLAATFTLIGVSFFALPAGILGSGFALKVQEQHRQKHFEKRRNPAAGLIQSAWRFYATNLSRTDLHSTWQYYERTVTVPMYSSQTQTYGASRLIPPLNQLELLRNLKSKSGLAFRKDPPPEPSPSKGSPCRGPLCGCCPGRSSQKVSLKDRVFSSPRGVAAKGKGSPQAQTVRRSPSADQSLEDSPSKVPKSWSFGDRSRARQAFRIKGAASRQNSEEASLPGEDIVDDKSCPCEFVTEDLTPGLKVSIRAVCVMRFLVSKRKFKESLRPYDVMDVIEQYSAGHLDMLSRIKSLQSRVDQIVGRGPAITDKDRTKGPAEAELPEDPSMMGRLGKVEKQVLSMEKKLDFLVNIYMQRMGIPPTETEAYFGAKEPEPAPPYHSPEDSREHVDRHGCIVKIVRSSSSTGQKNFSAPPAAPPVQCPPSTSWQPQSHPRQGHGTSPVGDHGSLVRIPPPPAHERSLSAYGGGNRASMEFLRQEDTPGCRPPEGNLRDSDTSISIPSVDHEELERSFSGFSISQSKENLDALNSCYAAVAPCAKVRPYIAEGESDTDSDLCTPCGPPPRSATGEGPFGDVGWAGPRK
Assay: activation (potentiation) of Kv7.2 current, SyncroPatch 384 electrophysiology in CHO cells stably expressing human Kv7.2
Settings: human Kv7.2 in CHO cells; in presence of 5.6 μM zinc pyrithione; % activation relative to 30 μM ML-213
pEC50: −log10 of the molar value.
Decision: pEC50 compared against 6; not below it gives label 1, below it gives label 0.

Does the reported pEC50 for COC(C)(CNC(=O)NC1COC2(CCCC2)C1)c1cccc(Cl)c1 (stereo not shown) fall at or above the 6 mark?
label 0

Is reported pEC50 greater than or equal to 6 here: CO[C@@](C)(CNC(=O)[C@@H]1C[C@H]1C1CCCC1)c1cccc(Cl)c1 (mixture of isomers)
label 1

Does pEC50 meet or surpass 6 for N#Cc1cc(C2(CNC(=O)[C@H]3C[C@@H]3c3ccccc3)CCO2)ccc1F (stereo partly shown) ?
label 0

Reference source: patent US20260308149A1
